Measured Efficacy (Table G1) accompanies every entry in the list below.
Test system: Uromyces appendiculatus
Experiment: In vivo preventive test on Uromyces appendiculatus (bean rust)
Settings: dose 100 ppm
State just the number; it will be interpreted in %.

Below, each entry is followed by its recorded Efficacy (Table G1) result.
{"molecule": "Cn1nc(C(F)F)c(C(=O)N(Cc2ncc(C(F)(F)F)cc2-c2ccncc2)C2CC2)c1F [CMP3, reference compound]", "obsValue": 0}
{"molecule": "Cn1nc(C(F)F)c(C(=O)N(Cc2ncc(C(F)(F)F)cc2-c2cccnc2)C2CC2)c1F [CMP2, reference compound]", "obsValue": 0}
{"molecule": "Cn1nc(C(F)F)c(C(=O)N(Cc2ncc(C(F)(F)F)cc2-c2ccnc3cc(Cl)ccc23)C2CC2)c1F", "obsValue": 67}
{"molecule": "Cn1nc(C(F)F)c(C(=O)N(Cc2ncc(C(F)(F)F)cc2-c2coc3ccccc23)C2CC2)c1F", "obsValue": 78}

// "Cn1nc(C(F)F)c(C(=O)N(Cc2ncc(C(F)(F)F)cc2-c2cccs2)C2CC2)c1F" : Efficacy (Table G1) value = 100

Every entry's value here was drawn from patent US10076116B2.
